SUBJECT OF TEST: NET (Rattus norvegicus, UniProt Q63380)
Sequence (Q63380 1-617): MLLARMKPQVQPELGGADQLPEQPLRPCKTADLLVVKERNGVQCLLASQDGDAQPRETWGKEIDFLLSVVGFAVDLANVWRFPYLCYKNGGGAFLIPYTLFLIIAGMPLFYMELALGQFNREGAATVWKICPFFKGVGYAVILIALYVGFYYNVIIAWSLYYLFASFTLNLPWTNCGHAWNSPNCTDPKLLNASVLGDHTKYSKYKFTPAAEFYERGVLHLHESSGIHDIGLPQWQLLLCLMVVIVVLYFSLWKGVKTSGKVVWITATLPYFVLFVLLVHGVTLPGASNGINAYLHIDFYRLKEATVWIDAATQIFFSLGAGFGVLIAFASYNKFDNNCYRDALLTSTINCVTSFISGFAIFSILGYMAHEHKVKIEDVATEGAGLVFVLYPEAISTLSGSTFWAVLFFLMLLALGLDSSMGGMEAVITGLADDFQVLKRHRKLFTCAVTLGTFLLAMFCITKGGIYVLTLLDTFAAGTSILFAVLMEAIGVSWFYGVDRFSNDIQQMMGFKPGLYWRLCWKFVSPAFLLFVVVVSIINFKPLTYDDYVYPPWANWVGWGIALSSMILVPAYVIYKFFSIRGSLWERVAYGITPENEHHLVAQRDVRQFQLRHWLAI
EXPERIMENT SUMMARY: [3H]MPP+ release at NET in rat brain synaptosomes
MEASUREMENT LABEL: pEC50
Units for pEC50: none; it is -log10 of a concentration expressed in mol/L.

Problem: # lookup: pEC50 of Cc1cccc(C2OCCNC2C)c1 (stereo not shown)
Solution: 6.29

Problem: # lookup: pEC50 of CC1NCCOC1c1ccccc1 (stereo not shown) [Phenmetrazine, 3-methyl-2-phenylmorpholine, reference compound]
Solution: 7.54

Problem: # lookup: pEC50 of Cc1ccc(C2OCCNC2C)cc1 (stereo not shown)
Solution: 7.21

Problem: # lookup: pEC50 of Cc1ccccc1C1OCCNC1C (stereo not shown)
Solution: 6.99
